For each of the molecules below, state its z-score.
# experiment_description: yeast growth modulation, basal conditions, primary screen, YJM789 clinical isolate, OD600, 24 h (AID 1089);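 note: growth of clinical yeast isolate S. cerevisiae YJM 789 seeded 1000 cells per well; test concentration not given here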
# test_conditions: S. cerevisiae YJM789 growth, higher = more signal, called active from +8 up or from −8 down
Numbers only.

Check out these entries, answers already filled in.
molecule	z-score
COC(=O)[C@@]1(Cc2ccccc2CN=[N+]=[N-])COC(c2ccc(OCCCO)cc2)=N1	-1.38
COc1ccc(CCNC(=O)[C@@]2(Sc3ccc(C)cc3)CC(=O)N(Cc3cc(C(F)(F)F)cc(C(F)(F)F)c3)[C@@H]2c2ccc(CO)cc2)cc1	-1.11
C=CCC(OC(C)=O)[C@@H]1[C@@H](N(Cc2ccc(-c3cccc(C(F)(F)F)c3)o2)C(=O)c2cccc3ccccc23)c2cc(OCCCO)ccc2N1C(=O)c1ccc2ccccc2n1 (some centres undefined)	0.75

As a next step, examine the molecule that follows.
Q: Fill blank: measured z-score of the molecule Cc1ccc(S[C@]2(C(=O)NCCN3CCOCC3)CC(=O)N(C3CCCCC3)[C@@H]2c2ccc(CO)cc2I)cc1 is ____.
Result: -0.376
